Cited source for all entries: paper PMC10397247

Would you kindly list interaction score for each of these binders?
measurement target: T1, O15-bH
T1 chain: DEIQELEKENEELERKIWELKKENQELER
test method notes: two-hybrid library CCNG1;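 note: natural log of median RNA to DNA barcode read ratio; higher means stronger binding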
Give bare numbers.

As a guide, the following entries are already answered.
binder: DKIQELKKEIEELERENWELEKENQELER [O11-bH]
numeric value: -0.515

binder: DKNQELKKENEELEREIWELEKEIQELER [O1-bH]
numeric value: -0.695

binder: DKNQELKKKIEELKRKNWELKKEIQELER [O13-bH]
numeric value: 1.51

Proceed to the following item.
Would you kindly share the measured interaction score for DEIAQLEQKIAELKQENAELEWEIAQLKQ [4H338-bA] ?
0.0935
